molecular target: Xanthine dehydrogenase/oxidase (Bos taurus)
Sequence (P80457 whole entry): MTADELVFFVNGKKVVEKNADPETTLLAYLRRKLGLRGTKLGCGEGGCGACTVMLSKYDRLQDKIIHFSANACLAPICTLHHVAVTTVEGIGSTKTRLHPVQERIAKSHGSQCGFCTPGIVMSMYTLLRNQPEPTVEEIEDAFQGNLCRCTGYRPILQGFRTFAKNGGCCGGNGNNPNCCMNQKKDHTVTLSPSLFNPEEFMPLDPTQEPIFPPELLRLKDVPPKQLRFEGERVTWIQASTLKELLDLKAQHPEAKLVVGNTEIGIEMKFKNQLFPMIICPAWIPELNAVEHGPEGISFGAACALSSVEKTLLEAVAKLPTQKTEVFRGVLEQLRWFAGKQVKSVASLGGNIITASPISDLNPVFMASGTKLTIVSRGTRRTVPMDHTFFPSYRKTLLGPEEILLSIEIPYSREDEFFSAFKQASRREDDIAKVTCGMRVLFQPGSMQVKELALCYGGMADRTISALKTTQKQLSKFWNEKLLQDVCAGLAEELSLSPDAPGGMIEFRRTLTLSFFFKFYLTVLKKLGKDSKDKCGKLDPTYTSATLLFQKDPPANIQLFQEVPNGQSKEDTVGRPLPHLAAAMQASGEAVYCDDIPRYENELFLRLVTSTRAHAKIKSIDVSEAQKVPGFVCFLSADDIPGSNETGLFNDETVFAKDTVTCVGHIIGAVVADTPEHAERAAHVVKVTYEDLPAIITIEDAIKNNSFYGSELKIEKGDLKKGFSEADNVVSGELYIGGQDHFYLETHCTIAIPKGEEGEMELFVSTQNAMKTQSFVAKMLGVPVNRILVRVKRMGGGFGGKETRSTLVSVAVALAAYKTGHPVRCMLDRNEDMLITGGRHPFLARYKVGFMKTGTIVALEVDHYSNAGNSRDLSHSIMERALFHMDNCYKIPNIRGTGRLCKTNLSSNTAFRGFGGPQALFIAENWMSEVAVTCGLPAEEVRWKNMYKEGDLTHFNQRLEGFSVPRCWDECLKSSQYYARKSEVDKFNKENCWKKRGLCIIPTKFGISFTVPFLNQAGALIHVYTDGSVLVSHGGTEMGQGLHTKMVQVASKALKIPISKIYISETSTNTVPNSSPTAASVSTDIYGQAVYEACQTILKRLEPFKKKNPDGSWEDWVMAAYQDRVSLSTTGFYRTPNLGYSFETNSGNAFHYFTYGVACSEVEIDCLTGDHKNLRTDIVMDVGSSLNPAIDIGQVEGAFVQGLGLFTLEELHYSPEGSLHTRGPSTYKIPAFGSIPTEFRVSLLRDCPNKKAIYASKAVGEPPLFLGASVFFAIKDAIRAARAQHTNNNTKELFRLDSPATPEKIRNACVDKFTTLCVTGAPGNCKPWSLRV
PARAMETER_MEASURED: pKi
Field pKi (float): negative decimal logarithm of the concentration in molar.

Enquiry: Give recorded pKi with Xanthine dehydrogenase/oxidase (Bos taurus) for the following compound: O=C1Cc2[nH]ccc2C(=O)N1
Return: 4.03
